Biological target: Inhibitor of nuclear factor kappa-B kinase subunit alpha (Homo sapiens)
Conditions: at 1 µM

- Compound Structure: "CCn1c(-c2nonc2N)nc2cncc(C(=O)NCCNC)c21"
  Unit Of Measurement: "%"
  inhibition: 30
- Compound Structure: "O=S(=O)(CCOCc1ccc(-c2ccc3ncnc(Nc4ccc(OCc5cccc(F)c5)c(Cl)c4)c3c2)o1)c1ccccc1"
  Unit Of Measurement: "%"
  inhibition: 0
- Compound Structure: "Oc1cccc(-c2nc(-c3ccccc3)[nH]c2-c2ccncc2)c1"
  Unit Of Measurement: "%"
  inhibition: 2
- Compound Structure: "CCS(=O)(=O)c1ccc(OC)c(Nc2ncc(-c3cccc(OC)c3)o2)c1"
  Unit Of Measurement: "%"
  inhibition: 1
- Compound Structure: "CN1CCC(n2cnc(-c3ccc(F)cc3)c2-c2ccnc(N)n2)CC1"
  Unit Of Measurement: "%"
  inhibition: 2
- Compound Structure: "N#Cc1cccc(Nc2nccc(-c3cnn4ncccc34)n2)c1"
  Unit Of Measurement: "%"
  inhibition: -9
- Compound Structure: "C[C@@H](Oc1cc(-n2cnc3ccc(OCC4CCN(C)CC4)cc32)sc1C(N)=O)c1ccccc1C(F)(F)F"
  Unit Of Measurement: "%"
  inhibition: 3
- Compound Structure: "COc1ccc(-c2nn3ncccc3c2-c2ccnc(Nc3ccc4c(c3)OCCO4)n2)cc1"
  Unit Of Measurement: "%"
  inhibition: 1
